All figures here come from patent US8178548B2.

compounds and their reported IC50
target: HCV polymerase 1B (Δ21 NS5B, HCV Strain 1B BK) (Hepatitis C virus genotype 1b, UniProt P26663); construct: 20 to 50 nM Δ21 NS5B; test: biochemical
Sequence (P26663 2420-2989, stated change not applied): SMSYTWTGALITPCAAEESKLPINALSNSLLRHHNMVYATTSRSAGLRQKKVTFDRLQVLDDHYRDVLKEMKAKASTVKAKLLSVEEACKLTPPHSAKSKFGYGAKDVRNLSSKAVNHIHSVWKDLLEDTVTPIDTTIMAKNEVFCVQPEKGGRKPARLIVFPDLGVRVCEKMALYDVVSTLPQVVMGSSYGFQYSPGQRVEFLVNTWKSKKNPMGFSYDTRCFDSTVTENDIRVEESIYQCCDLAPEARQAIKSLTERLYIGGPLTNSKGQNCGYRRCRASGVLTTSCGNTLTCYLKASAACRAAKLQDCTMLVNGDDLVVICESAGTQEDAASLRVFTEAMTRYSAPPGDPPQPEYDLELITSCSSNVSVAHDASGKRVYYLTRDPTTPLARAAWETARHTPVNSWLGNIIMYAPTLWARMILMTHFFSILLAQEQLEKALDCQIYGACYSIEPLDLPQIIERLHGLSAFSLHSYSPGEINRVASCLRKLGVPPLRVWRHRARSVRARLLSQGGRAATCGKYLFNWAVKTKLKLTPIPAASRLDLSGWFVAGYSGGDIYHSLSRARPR
Result Type: IC50

[[record]]
compound = "COc1c(/C=C/c2ccc(NS(C)(=O)=O)cc2)cc(-n2ccc(=O)[nH]c2=O)cc1-c1ccncc1"
measured_value = "> 1000 nM"

[[record]]
compound = "COc1c(/C=C/c2ccc(NS(C)(=O)=O)cc2-c2ncc[nH]2)cc(-n2ccc(=O)[nH]c2=O)cc1C(C)(C)C"
measured_value = "10 to 100 nM"

[[record]]
compound = "COc1c(C2CC2c2ccc(NS(C)(=O)=O)cc2)cc(N2CCC(=O)NC2=O)cc1C(C)(C)C (stereo not drawn)"
measured_value = "100 to 1000 nM"

[[record]]
compound = "COc1c(/C=C/c2ccc(NS(C)(=O)=O)c(F)c2)cc(-n2ccc(=O)[nH]c2=O)cc1C(C)(C)C"
measured_value = "< 10 nM"

[[record]]
compound = "COc1c(/C=C/c2ccc(NS(C)(=O)=O)cc2C(=O)O)cc(-n2ccc(=O)[nH]c2=O)cc1C(C)(C)C"
measured_value = "< 10 nM"

[[record]]
compound = "COCCNC(=O)c1cc(NS(C)(=O)=O)ccc1/C=C/c1cc(-n2ccc(=O)[nH]c2=O)cc(C(C)(C)C)c1OC"
measured_value = "10 to 100 nM"

[[record]]
compound = "COc1c(/C=C/c2ccc(N)cc2)cc(N2CCC(=O)NC2=O)cc1C(C)(C)C"
measured_value = "100 to 1000 nM"

[[record]]
compound = "CC(C)(C)c1cc(-n2ccc(=O)[nH]c2=O)cc(/C=C/c2ccc(NS(C)(=O)=O)cc2)c1Cl"
measured_value = "10 to 100 nM"

[[record]]
compound = "COc1c(/C=C/c2ccc(NS(C)(=O)=O)cc2)cc(-n2ccc(=O)[nH]c2=O)cc1C(C)(C)CO"
measured_value = "10 to 100 nM"

